# Test Name: Inhibition of beta-lactamase OXA-10 (unknown origin) using nitrocefin substrate by enzymatic turnover assay
Endpoint Label: IC50 (nM)

Worked examples, 4 compounds total:
CC(C)(C)C1=C(C(=O)[O-])N2C(=O)/C(=C\c3ccoc3)C2O1.[Na+] (stereo not given) :: 7
CC(C)(C)C1=C(C(=O)[O-])N2C(=O)CC2O1.[Na+] (stereo not given) :: 36
CC(C)(C)C1=C(C(=O)[O-])N2C(=O)/C(=C/c3ccoc3)C2O1.[Na+] (stereo not given) :: 16
CC(C)(C)C1=C(C(=O)[O-])N2C(=O)/C(=C/c3ccccc3)C2O1.[Na+] (stereo not given) :: 10

A = COc1ccccc1/C=C1/C(=O)N2C(C(=O)[O-])=C(C(C)(C)C)OC12.[Na+] (stereo not given)
B = COc1ccc(/C=C2/C(=O)N3C(C(=O)[O-])=C(C(C)(C)C)OC23)cc1.[Na+] (stereo not given)
C = CC(C)(C)C1=C(C(=O)[O-])N2C(=O)/C(=C\c3ccccc3)C2O1.[Na+] (stereo not given)
D = COc1cccc(/C=C2/C(=O)N3C(C(=O)[O-])=C(C(C)(C)C)OC23)c1.[Na+] (stereo not given)
Sequence the entries by IC50, beginning with the highest number. # the answer lists labels in the order requested
C, D, A, B
(C: 36 nM, D: 22 nM, A: 7 nM, B: 3 nM)

I = CC(C)(C)C1=C(C(=O)[O-])N2C(=O)/C(=C/c3ccco3)C2O1.[Na+] (racemic)
II = O=C(O)[C@H]1/C(=C/CO)O[C@@H]2CC(=O)N21 [CLAVULANATE POTASSIUM]
Param metric = IC50; output whichever of I , II has the minimum value. // return label of chosen record
I
(I: 3 nM, II: 590 nM)
